# assay-method-text: in vivo
# experimental-conditions: female, ICR, mouse, ip, 200 mg/kg
test-readout: Tmax (h)

In [3]: df
Out[3]:
                                   molecule  test_readout  measurement_units  value
0  CCCCCCc1ccc(Oc2ccccc2)c(O)c1 [PT04, 5-hexyl-2-phenoxyphenol, reference compound]          Tmax                  h      1

----------
# system: bpFabV (Burkholderia pseudomallei, UniProt Q63TE9)
# Assay type: biochemical
# experimental-conditions: read-out: Burkholderia pseudomallei IC50 (μM), bpFabV
test-readout: IC50

                              record_smiles    value
0        CCCCCCc1cc(=O)c(Oc2ccc(N)cc2C)cn1C     3 µM
1  CCCCCCc1cc(=O)c(Oc2ccc([N+](=O)[O-])cc2)cn1C  0.56 µM
